B1: tRNA (parent)
chain: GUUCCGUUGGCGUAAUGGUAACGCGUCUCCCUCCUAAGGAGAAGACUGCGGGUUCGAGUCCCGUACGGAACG

variants of: B1; test: yeast fitness relative to wild type (ratio to wild type); higher = fitter; tRNA-Arg(CCU), competitive growth, 37 C, YPD
Fewer inactive variants are shown than the library holds.
MEASUREMENT_NAME: yeast fitness

• GUUCCGUUGGCGUAUUGGUAACGGGUCUCCCUCCUAAGGAGAAGACUGCGGGUUCGAGUCCCGUAUGGAACG [A15U C24G C66U] = 0.608
• GUUCGGUUGGCGUAAUGGUAACGCGUCUCCCUCAUAAGGAGAAGACUGCGGGUUCGAGUCCCGUACGGAACG [C5G C34A] = 0.702
• GUUCCGUUGGCAUAAUGGUAACGCGUCUCCCUCCUAAGGAGAAGACUGUGGGUUCGAGUCCCGUACGGAACG [G12A C49U] = 0.93
• GUUCCGUUGGCGUAAUGGUAACGCGUCUCCCUCCUAAGGAGAAGACUGCGGGGUCCAGUCCCGUACCGAACG [U53G G56C G67C] = 0.605
• GUUCCGUUGGCGUAAUGGUAAUGCGUCUCCCUCCUAAGGAGAAGACUGCGGGUUCGAGACGCGUACGGAACG [C22U U59A C61G] = 0.547
• GUUCCGUUGGCGUAAUGGUAACGCGUCUCCCUCCUAAGGAGACAACUGCGGGUUCGAGACCCGUACGGAACG [A43C G44A U59A] = 0.593
• GUUUCGUUGGCAUAAUGGUGAUGCGUCUCCCUCCUAAGGAGAAGACUGCGGGUUCGAGUCCCGUACGGAACG [C4U G12A A20G C22U] = 0.532
• GUUCCGUUGGCGUAAUGGUAACGCGUCUCCCUCUUAAGGGGAAGAAUGCGGGUUCGAGUCCCGUACGGAACG [C34U A40G C46A] = 0.579
• GUUCCGUUGGCGUAAUGGUAACGCGUCUCCCUCCUACGGUGAAGACUGCGAGUUCGAGUCCCGUACGGAACG [A37C A40U G51A] = 0.538
• GUUCCGUUGGCGUGAUGGUAACGCGUCUCCCUCCUAAGGAGAAGACUGCGGGUUCGAGUCCCGUCCGGAACG [A14G A65C] = 0.903
• GUUCCGUUGGCGUAAUGGUAACGCGUCUCCCUCCUAAGGAGAAGGCUGCGGGUUUGAGUCCCGUGCGGAACG [A45G C55U A65G] = 0.544
• GUUCCGUUGGCGUAGUGGUAACGCGUCUCCCUCCCAAGGAGAAGACUGCGGGUUCGAGUCCCGUACGGAACG [A15G U35C] = 0.892
• GUUCCGUUGGCGUAAUGGUAACGCGUCUCCCUCCCACGGAGAAGACUGCGGGUUCGAGUCCCGUACGCACCG [U35C A37C G68C A70C] = 0.913
• GUUCCGUUGGCGUAAUGCUAACGGGUCUCCCUCCUAAGGAGAAGGCUGCGGGUUGGAGUCCCGUACGGAACG [G18C C24G A45G C55G] = 0.693
• GUUCCGUUGGCGUAAUGGUACCGCGUCCCCCUCCUAAGGAGAAGACUGCGGGUUCGAGUCCCGUACGGAACG [A21C U28C] = 0.852
• GUUCCGUUGGUGUAAUGGUACCGCGUCUCCCUCCUAAGGAGGAGACUGCGGGUUCGAGUCCCGUACGGAACG [C11U A21C A42G] = 0.523
• GUUCCGUUGGCGUCAUGGUAACGCGUCUCCCUCCUACGGAGAAGACUGCGAGUUCGAGACCCGUACGGAACG [A14C A37C G51A U59A] = 0.56
• GUUCCGUUGGCGUAAUGGUAACGCGUCUCCCUCCUAAGGAGAGGACUGCGGGUUCGAGUCCCGUAGGGAACG [A43G C66G] = 0.699
• GUUCCGUUGGCGUAAUGGUAACGCGUCCCCCUCCUAAGCAGAACACUGCGGGUUCGAGUCCCGUACGGAACG [U28C G39C G44C] = 0.529
• GUUCCGUUGGCGUAAAGGUAACGCGUCUCCGUCCUAAGGAGAAGACUGCGGGUUCGAGUCCCGUACGGAACG [U16A C31G] = 0.87
• GUUCCGUUGGCGUAAUGGUAGCGCGUCUCCCUCCUAAGGAGAAGACUGCGGGUUCGAGUCCCGUACGUAACG [A21G G68U] = 1.07
• GUUUCGUUGGCGUAAUGGUAACGCGUCUCACUCCUAAGGAGAAGACUGCGGGUUCGAGUCCCAUACGGAACG [C4U C30A G63A] = 0.828
• GUUCCGUUGGUGUAAUGGUUACGCGUCUCCCUCCUAAGGAGAAGACUGCGGGUUCGAGUCCCGUACGGAACG [C11U A20U] = 0.75

Where these numbers come from: the RNAGym collection of RNA variant scans (doi:10.1126/science.aae0568)
